Target: UniProt O00187
Assay: MASP-2 co-crystallization, X-ray crystallography and structure analysis (H-bonds, van der Waals contacts)
Parameters: unit not given beside the values
Settings: Table A5-1 pharmacophore: distance between elements, S2/S1 region
parameter: d(H4,O1)
I'd appreciate a reply containing only the number, no unit.

Any idea what its d(H4,O1) is? The compound is C[C@H](NC(=O)[C@H](N)CCCc1ccccc1)C(=O)NCc1ccc(C(=N)N)cc1.Cl.Cl [1042_2]
4.02

Any idea what its d(H4,O1) is? The compound is Cc1nc(N)ccc1CNC(=O)[C@H](C)NC(=O)[C@H]1C[C@H](Cc2cccc(Cl)c2)CN1.Cl.Cl [1328_3]
3.99

Any idea what its d(H4,O1) is? The compound is CNC(=O)c1ccc2c(=O)n(Cc3ccccc3)c(=O)n(CC(=O)NCc3ccc(C(=N)N)cc3)c2c1
3.89

---

Target: MASP-2 CCP2-SP (Homo sapiens (Human), UniProt O00187)
Sequence (O00187 445-686): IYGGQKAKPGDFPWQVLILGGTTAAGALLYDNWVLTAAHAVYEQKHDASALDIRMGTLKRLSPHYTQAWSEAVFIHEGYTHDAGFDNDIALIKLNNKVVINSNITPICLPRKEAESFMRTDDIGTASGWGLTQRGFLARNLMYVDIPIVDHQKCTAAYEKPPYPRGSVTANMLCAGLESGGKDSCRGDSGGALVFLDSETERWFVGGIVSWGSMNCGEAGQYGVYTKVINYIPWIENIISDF
Sequence (O00187 364-432 partner): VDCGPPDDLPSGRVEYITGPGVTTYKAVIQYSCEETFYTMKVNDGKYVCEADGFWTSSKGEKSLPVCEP
Assay: MASP-2 co-crystallization, X-ray crystallography and structure analysis (H-bonds, van der Waals contacts)
Conditions: Table A2-11
Where a name gives a salt, the structure may show the parent alone.
Would you mind telling me the reported van der Waals contact distance, VAL 653 CG1 to compound atom of each entry?
I'd appreciate a reply containing only the number, no unit.

Any idea what its van der Waals contact distance, VAL 653 CG1 to compound atom is? The molecule is Cc1nc(N)ccc1CNC(=O)[C@H](C)NC(=O)[C@H]1C[C@H](Cc2ccccc2Br)CN1 [compound 1372, Di-trifluoroacetate salt]
3.32

Any idea what its van der Waals contact distance, VAL 653 CG1 to compound atom is? The molecule is Cc1nc(N)ccc1CNC(=O)[C@H](C)NC(=O)[C@H]1C[C@@H](c2ccccc2)CCN1 [compound 1253, Dihydrochloride]
3.31

Any idea what its van der Waals contact distance, VAL 653 CG1 to compound atom is? The molecule is Cc1nc(N)ccc1CNC(=O)[C@H](C)NC(=O)c1cc(Cc2ccccc2)n[nH]1
3.35

Any idea what its van der Waals contact distance, VAL 653 CG1 to compound atom is? The molecule is Cc1cnc(NCCc2ccccc2)c(=O)n1CC(=O)NCc1ccc2nc(N)[nH]c2c1
3.61

Any idea what its van der Waals contact distance, VAL 653 CG1 to compound atom is? The molecule is Cc1nc(N)ccc1CNC(=O)[C@H](C)NC(=O)[C@H]1C[C@H](Cc2cc(-c3ccccc3)cs2)CN1 [compound 1399, Dihydrochloride]
3.32

---

Target: MASP-2 CCP2-SP (Homo sapiens (Human), UniProt O00187)
Assay: MASP-2 co-crystallization, X-ray crystallography and structure analysis (H-bonds, van der Waals contacts);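 as to Ligand-pharmacophore element distance, pharmacophore element CA5: distance from averaged pharmacophore element to bound ligand; missing value means element absent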
Settings: Table A4-1; element CA5
Would you mind telling me the reported Ligand-pharmacophore element distance, pharmacophore element CA5 of each entry?
I'd appreciate a reply containing only the number, no unit.

Any idea what its Ligand-pharmacophore element distance, pharmacophore element CA5 is? The compound is Cc1nc(N)ccc1CNC(=O)C(C)NC(=O)C1CC(c2cccc3ccccc23)CCN1.Cl.Cl (stereo not drawn) [1297_3]
0

Any idea what its Ligand-pharmacophore element distance, pharmacophore element CA5 is? The compound is CNC(=O)c1ccc2c(=O)n(Cc3ccccc3)c(=O)n(CC(=O)NCc3ccc(C(=N)N)cc3)c2c1
1.25

Any idea what its Ligand-pharmacophore element distance, pharmacophore element CA5 is? The compound is Cc1nc(N)ccc1CNC(=O)[C@H](C)NC(=O)[C@H]1C[C@H](Cc2ccc(-c3ccccc3)cc2)CN1
0
